- System: E. coli V3065 expressing H. pylori AddAB, T4 phage, OD growth
- assay-details: AddAB helicase-nuclease blockers, potency curves – absorbance, E. coli V3065, T4 phage, powder samples, late-stage follow-up (AID 504677)
The source made the active and inactive calls.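 Rule for the calls: active = compounds with IC50 half-inhibiting concentration of 10 µM or lower; inactive = IC50 above 10 µM.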
Form entry, call: pick from 1 (yes) for active, 0 (no) for inactive

INSERT INTO measurements (smiles_string, assigned_label) VALUES
  ('Cc1ccc2nc(/C(C#N)=C\c3ccc([N+](=O)[O-])o3)[nH]c2c1', '1 (yes)'),
  ('C=CCn1c(Sc2ncc([N+](=O)[O-])s2)n[nH]c1=O', '0 (no)'),
  ('Cc1cccnc1NC(=O)c1ccc([N+](=O)[O-])o1', '0 (no)');

Dear all, I need the recorded test outcome for `CCn1cc(C(=O)O)c(=O)c2cnc(N3CCN(C(=S)Nc4ccccc4C(F)(F)F)CC3)nc21` , thank you.
0 (no)

Dear all, I need the recorded test outcome for `O=C(NCc1cccnc1)c1ccc([N+](=O)[O-])o1` , thank you.
0 (no)

Dear all, I need the recorded test outcome for `N#Cc1c(NC(=O)c2ccc([N+](=O)[O-])o2)sc2c1CCC2` , thank you.
0 (no)

All values here come from PubChem BioAssay AID504677.
